For each of the compounds below, state its pIC50.
Biological target: human TPH1 (Homo sapiens (Human))
Sequence (P17752 whole entry): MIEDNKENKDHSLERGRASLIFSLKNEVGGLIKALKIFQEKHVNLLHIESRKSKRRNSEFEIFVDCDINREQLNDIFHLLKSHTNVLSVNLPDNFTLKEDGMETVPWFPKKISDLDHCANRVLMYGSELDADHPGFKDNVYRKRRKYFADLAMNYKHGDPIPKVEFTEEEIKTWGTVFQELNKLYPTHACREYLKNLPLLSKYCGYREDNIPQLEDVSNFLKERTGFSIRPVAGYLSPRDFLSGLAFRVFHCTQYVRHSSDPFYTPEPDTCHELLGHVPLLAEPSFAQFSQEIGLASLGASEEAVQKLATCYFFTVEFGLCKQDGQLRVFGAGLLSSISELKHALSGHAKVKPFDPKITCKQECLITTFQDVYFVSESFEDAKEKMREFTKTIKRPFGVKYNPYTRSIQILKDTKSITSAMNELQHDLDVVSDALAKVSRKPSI
Assay: Biochemical in vitro assay using fluorescence readout (TPH1 inhibition)
Conditions: human TPH1, fluorescence readout
Procedure: Biochemical In Vitro Assay Using Fluorescence Readout To generate the enzyme, full length human TPH1 is cloned into the plasmid pET20b(+) (Novagen) and expressed in E. coli. […] The activity of TPH1 is determined by using a fluorescence assay. […] The amount of 5-hydroxy-L-tryptophan produced during the enzymatic reaction is determined by fluorescence readout. Fluorescence, as determined at 540 nm when excited at 300 nm wavelength, increases proportionally to the 5-hydroxy-L-tryptophan formed. […]
Give bare numbers, as −log10 of the molar value.

Cc1nn2c3c(nc2s1)CCN(C(=O)COc1ccc(N2CCOCC2)nc1Cl)C3c1sc(C(=O)N(C)C)cc1F (stereo not shown) = 8.70
Cc1nn2c3c(nc2s1)CCN(C(=O)COc1ccc(N2CCOCC2)cc1Cl)C3c1cnc(C2CC2)nc1 (stereo not shown) = 7.74
COc1ccc(C2c3c(nc4sccn34)CCN2C(=O)COc2ccc(CN3CCOCC3)nc2Cl)c(F)c1 (stereo not shown) = 8.05
CNS(=O)(=O)Nc1ccc(OCC(=O)N2CCc3nc4sc(C)nn4c3C2c2ccc(Cl)cc2F)c(Cl)n1 (stereo not shown) = 7.42
CCc1nc(C)ccc1OCC(=O)N1CCc2nc3sc(C)nn3c2C1c1cnc(OC(F)F)cc1C (stereo not shown) = 6.81
Cc1nn2c3c(nc2s1)CCN(C(=O)COc1cnc(N(C)C)nc1Cl)C3c1ccc(Cl)cc1F (stereo not shown) = 8.40

Proceeding to the next compound to report its pIC50.
Lookup: Please give the documented pIC50 of Cc1nn2c3c(nc2s1)CCN(C(=O)COc1ccc(C#N)cc1Cl)C3c1scnc1C (stereo not shown)
Found: 7.08

* * *

Target: human TPH1 (Homo sapiens (Human))
Test: Biochemical in vitro assay using fluorescence readout (TPH1 inhibition)
Settings: human TPH1, fluorescence readout
Description: Biochemical In Vitro Assay Using Fluorescence Readout To generate the enzyme, full length human TPH1 is cloned into the plasmid pET20b(+) (Novagen) and expressed in E. coli. […] The activity of TPH1 is determined by using a fluorescence assay. […] The amount of 5-hydroxy-L-tryptophan produced during the enzymatic reaction is determined by fluorescence readout. Fluorescence, as determined at 540 nm when excited at 300 nm wavelength, increases proportionally to the 5-hydroxy-L-tryptophan formed. […]
Response field label takes Yes when IC50 is strictly below 6 nM and No in all other cases.

The following compounds have reported results that may help.
Cc1nn2c3c(nc2s1)CCN(C(=O)COc1ccc(N2CCOCC2)nc1Cl)C3c1cncs1 (stereo not shown) = Yes
CS(=O)(=O)Nc1ccc(OCC(=O)N2CCc3nc4sccn4c3C2c2sccc2F)c(Cl)n1 (stereo not shown) = No
CNC(=O)c1cc(F)c(C2c3c(nc4sc(C)nn34)CCN2C(=O)COc2cc(F)cnc2Cl)s1 (stereo not shown) = No
O=C(COc1ccc(CN2CCOCC2)nc1Cl)N1CCc2nc3sccn3c2C1c1nc2ccccc2s1 (stereo not shown) = No
COc1ccc(C2c3c(nc4sccn34)CCN2C(=O)COc2ccc3ccccc3c2)cc1OC (stereo not shown) = Yes

For the next question, use this compound.
Lookup: Lab log: compare recorded IC50 with 6 nM; is it strictly lower for CCc1ncccc1OCC(=O)N1CCc2nc3sc(C)nn3c2C1c1coc(-c2ccccc2)n1 (stereo not shown) ?
Found: No

* * *

Target: UniProt P17752
Test: Biochemical in vitro assay using fluorescence readout (TPH1 inhibition)
Details: human TPH1, fluorescence readout
ASSAY_ENDPOINT: IC50 (nM)
Answers are plain numbers, in nM.

Cc1nn2c3c(nc2s1)CCN(C(=O)COc1ccc(C#N)nc1Cl)C3c1ccc(Cl)cc1F (centres unmarked) [Example 1.4.9] = 36

Count: 4. Required value per item: IC50.
1. CS(=O)(=O)Nc1ccc(OCC(=O)N2CCc3nc4sc(C(F)(F)F)nn4c3C2c2ccc(Cl)cc2F)c(Cl)n1 (centres unmarked) [Example 5.1.1]
2. CCc1c(OCC(=O)N2CCc3nc4sc(C)nn4c3C2c2ccc(C3CC3)cc2F)ccc(C)[n+]1[O-] (centres unmarked) [Example 1.6.20]
3. Cc1ccccc1OCC(=O)N1CCc2nc3sccn3c2C1c1nc2ccccc2s1 (centres unmarked) [Example 6.12.2]
4. Cc1nc(C)c(C2c3c(nc4sc(C)nn34)CCN2C(=O)COc2ccc(N3CCOCC3)nc2Cl)o1 (centres unmarked) [Example 1.66.1]

Found:
[50, 94, 115, 13]

Count: 6. Required value per item: IC50.
1. CCc1ncccc1OCC(=O)N1CCc2nc3sc(C)nn3c2C1c1ccc(Cl)cc1F (centres unmarked) [Example 1.4.5]
2. COCCOc1ccc(C2c3c(nc4sc(C)nn34)CCN2C(=O)COc2ccc(NS(C)(=O)=O)nc2Cl)c(F)c1 (centres unmarked) [Example 1.83.2]
3. Cc1nn2c3c(nc2s1)CCN(C(=O)COc1ccc(N2CCOCC2)nc1Cl)C3c1ncccc1F (centres unmarked) [Example 1.35.1]
4. Cc1cnc([C@H]2c3c(nc4sc(C)nn34)CCN2C(=O)COc2ccc(C3(N(C)C)CC3)nc2Cl)c(F)c1 [Example 1.31.12]
5. Cc1nn2c3c(nc2s1)CCN(C(=O)COc1ccc(C(N)=O)nc1Cl)C3c1ncc(Cl)cc1F (centres unmarked) [Example 1.33.4]
6. Cc1nn2c3c(nc2s1)CCN(C(=O)COc1ccc(NS(C)(=O)=O)nc1Cl)C3c1sc(C(=O)N(C)C)cc1F (centres unmarked) [Example 1.24.9]

Found:
13
18
6
217
7
6

Count: 5. Required value per item: IC50.
1. Cc1nn2c3c(nc2s1)CCN(C(=O)COc1ccc(N(C)C)nc1Cl)C3c1ccc(C2CC2)cc1F (centres unmarked) [Example 1.6.22]
2. COC(=O)c1ccc(C2c3c(nc4sc(C)nn34)CCN2C(=O)COc2ccc(C(=O)NC3CC3)nc2Cl)c(F)c1 (centres unmarked) [Example 1.79.2]
3. CCc1nc(N2CCCS2(=O)=O)ccc1OCC(=O)N1CCc2nc3sc(CF)nn3c2C1c1ccc(Cl)cc1F (centres unmarked) [Example 7.1.3]
4. Cc1nn2c3c(nc2s1)CCN(C(=O)COc1ccc(F)cc1C)C3c1ccc(C2CC2)cc1F (centres unmarked) [Example 1.6.10]
5. Cc1nn2c3c(nc2s1)CCN(C(=O)COc1cnc(N(C)C)nc1Cl)C3c1sccc1F (centres unmarked) [Example 1.23.11]

Found:
1. 3
2. 21
3. 6
4. 6
5. 6

Count: 6. Required value per item: IC50.
1. Cc1nn2c3c(nc2s1)CCN(C(=O)COc1c(F)cc(N2CCOCC2)nc1Cl)C3c1ncc(C2CC2)cc1F (centres unmarked) [Example 1.14.12]
2. Cc1cnc(C2c3c(nc4sc(C)nn34)CCN2C(=O)COc2ccc(C#N)nc2Cl)c(F)c1 (centres unmarked) [Example 1.31.3]
3. Cc1nn2c3c(nc2s1)CCN(C(=O)COc1ccc(C(=O)N(C)C)nc1Cl)C3c1cncs1 (centres unmarked) [Example 1.39.2]
4. COC(C)(C)c1ccc(C2c3c(nc4sc(C)nn34)CCN2C(=O)COc2ccc(C(=O)NC3CC3)nc2Cl)c(F)c1 (centres unmarked) [Example 1.81.1]
5. CCOC(=O)c1ncc(C2c3c(nc4sc(C)nn34)CCN2C(=O)COc2ccc(C(F)(F)F)cc2Cl)s1 (centres unmarked) [Example 1.30.2]
6. CCc1nc(N2CCCS2(=O)=O)ccc1OCC(=O)N1CCc2nc3sc(C(F)F)nn3c2C1c1ccc(Cl)cc1F (centres unmarked) [Example 8.1.3]

Found:
[41, 36, 69, 27, 442, 7]

Count: 4. Required value per item: IC50.
1. CCc1ncccc1OCC(=O)N1CCc2nc3sc(C)nn3c2C1c1nc(-c2ccccc2)no1 (centres unmarked) [Example 1.11.2]
2. Cc1ccc(C2c3c(nc4sccn34)CCN2C(=O)COc2cccnc2Cl)c(F)c1 (centres unmarked) [Example 6.10.3]
3. CCc1nn2c3c(nc2s1)CCN(C(=O)COc1ccc(NS(C)(=O)=O)nc1Cl)C3c1ccc(Cl)cc1F (centres unmarked) [Example 3.1.1]
4. Cc1nn2c3c(nc2s1)CCN(C(=O)COc1ccc(C(=O)N(C)C)nc1Cl)C3c1ccc(C2CC2)cc1F (centres unmarked) [Example 1.6.25]

Found:
141
14
13
4

Count: 3. Required value per item: IC50.
1. Cc1nn2c3c(nc2s1)CCN(C(=O)COc1ccc(N(C)C)nc1Cl)C3c1ccc(Cl)nc1F (centres unmarked) [Example 1.16.1]
2. CNc1ccc(OCC(=O)N2CCc3nc4sc(C)nn4c3C2c2ccc(Cl)nc2F)c(Cl)n1 (centres unmarked) [Example 1.16.3]
3. Cc1cc(Cl)ccc1OCC(=O)N1CCc2nc3sccn3c2C1c1ccc(Cl)cc1F (centres unmarked) [Example 6.4.3]

Found:
1: 5; 2: 8; 3: 6

Hey, just so you know, these numbers are from patent US9765092B2.
